Where these numbers come from: the Human Domainome abundance scans (Beltran et al. 2025)

B1: Retinoic acid receptor beta, residues 85 to 161; numbered along this chain, P10826 (parent)
chain: YKPCFVCQDKSSGYHYGVSACEGCKGFFRRSIQKNMIYTCHRDKNCVINKVTRNRCQYCRLQKCFEVGMSKESVRND

Variants of: B1
Test: abundance fitness (aPCA) (normalised: wild type 0, dead -1); higher = more abundant; growth selection in yeast, the domain comes from the species named
Conditions: Homo sapiens
Quick list: abundance fitness per entry.
No unit in the answer, only the number.

Please review the following examples before continuing.
H41Q : 0.029
F5S : -0.053
Y14L : 0.006
G23E : 0.231
I37L : -0.053

Attention now turns to another entry.
# input For R29W , what is its reported abundance fitness?
# output 0.011
